Reference for the values: the supplement of paper PMC12350171

System: P. vulgatus RND KO;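 further: active when median AUC fell below 0.1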
Experiment: growth AUC normalised to DMSO control (median) (fraction of control); higher = less growth inhibition, active = hit call of the paper
Settings: 20 µM
Structures can show the parent of a compound that is named as a salt.
I would appreciate it if you labelled entries 1 when growth AUC normalised to DMSO control is 1 or higher, otherwise 0.

{"molecule": "C[C@]12C/C(=C/O)C(=O)C[C@@H]1CC[C@@H]1[C@@H]2CC[C@@]2(C)[C@H]1CC[C@]2(C)O", "qualitative.label": 0}
{"molecule": "NCCc1c[nH]c2ccc(O)cc12 [Serotonin hydrochloride]", "qualitative.label": 1}
{"molecule": "CC(C)(N)Cc1ccccc1 [Phentermine hydrochloride]", "qualitative.label": 0}
{"molecule": "CN(C)[C@@H]1C(=O)C(C(N)=O)=C(O)[C@@]2(O)C(=O)C3=C(O)c4c(O)ccc(Cl)c4[C@@](C)(O)[C@H]3C[C@@H]12 [Chlortetracycline hydrochloride]", "qualitative.label": 0}
{"molecule": "C1CCc2nnnn2CC1", "qualitative.label": 1}
{"molecule": "CN1C(=O)CCS(=O)(=O)C1c1ccc(Cl)cc1 (stereo not drawn)", "qualitative.label": 1}
{"molecule": "CC(Cc1ccccc1)NCCC(c1ccccc1)c1ccccc1 (stereo not drawn) [Prenylamine lactate]", "qualitative.label": 1}
{"molecule": "CC[C@@]1([C@@H]2O[C@@H]([C@H]3O[C@@](O)(CO)[C@H](C)C[C@@H]3C)C[C@@H]2C)CC[C@H]([C@]2(C)CC[C@]3(C[C@H](O)[C@@H](C)[C@@H]([C@@H](C)[C@@H](OC)[C@H](C)C(=O)O)O3)O2)O1 [Monensin sodium salt]", "qualitative.label": 0}
{"molecule": "O=[N+]([O-])O[C@H]1CO[C@H]2[C@@H]1OC[C@H]2O[N+](=O)[O-] [Isosorbide dinitrate]", "qualitative.label": 0}
{"molecule": "CC(C)c1cccc(C(C)C)c1O", "qualitative.label": 1}
{"molecule": "CN1C[C@H](CNC(=O)OCc2ccccc2)C[C@@H]2c3cccc4c3c(cn4C)C[C@H]21", "qualitative.label": 0}
{"molecule": "CCC1(C)CC(=O)NC(=O)C1 [Bemegride]", "qualitative.label": 1}

---

Recorded measurements of growth AUC normalised to DMSO control, one per entry
Tested on: Salmonella enterica typhimurium
Test: growth AUC normalised to DMSO control (fraction of control); higher = less growth inhibition, active = hit call of the paper
Conditions: 20 µM
Where a name gives a salt, the structure may show the parent alone.
assay.metric: growth AUC normalised to DMSO control

{"molecule": "O=C1CC[C@@]2(O)[C@H]3Cc4ccc(O)c5c4[C@@]2(CCN3CC2CC2)[C@H]1O5 [Naltrexone hydrochloride dihydrate]", "quantitative.result": 1}
{"molecule": "CC(=O)O[C@H]1C[C@H](O[C@H]2[C@@H](O)C[C@H](O[C@H]3[C@@H](O)C[C@H](O[C@H]4CC[C@@]5(C)[C@H](CC[C@@H]6[C@@H]5C[C@@H](O)[C@]5(C)[C@@H](C7=CC(=O)OC7)CC[C@]65O)C4)O[C@@H]3C)O[C@@H]2C)O[C@H](C)[C@H]1O[C@@H]1O[C@H](CO)[C@@H](O)[C@H](O)[C@H]1O [Lanatoside C]", "quantitative.result": 1.01}
{"molecule": "C[C@]12CCC(=O)C(O)=C1CC[C@@H]1[C@@H]2CC[C@]2(C)C(=O)CC[C@@H]12 [Formestane]", "quantitative.result": 1.03}
{"molecule": "CN1CCC2(C)c3cc(O)ccc3N(C)C12 (single isomer, unassigned; (-)) [(-) Eseroline fumarate salt]", "quantitative.result": 0.999}
{"molecule": "CCOC(=O)c1cncn1[C@H](C)c1ccccc1 [Etomidate]", "quantitative.result": 1.01}
{"molecule": "CC1C=CC=CCCC=CC=CC=CC=CC(OC2OC(C)C(O)C(N)C2O)CC2OC(O)(CC(O)C(O)CCC(O)CC(O)CC(O)CC(=O)OC(C)C(C)C1O)CC(O)C2C(=O)O (centres undefined) [Nystatine]", "quantitative.result": 0.992}
{"molecule": "C=CCC1(CC(C)C)C(=O)NC(=O)NC1=O [Butalbital]", "quantitative.result": 1}
{"molecule": "C[C@]12CC[C@H]3[C@@H](CCC4=CC(=O)CC[C@@H]43)[C@@H]1CC[C@@H]2O [Nandrolone]", "quantitative.result": 0.995}
{"molecule": "CC(=O)OCC(=O)[C@H]1CC[C@H]2[C@@H]3CC[C@H]4C[C@H](O)CC[C@]4(C)[C@H]3C(=O)C[C@]12C [Alfadolone acetate]", "quantitative.result": 1.01}
{"molecule": "CCC1(CC)C(=O)C=CNC1=O [Pyrithyldione]", "quantitative.result": 0.992}
{"molecule": "CN(C)C(=O)Oc1cc(OC(=O)N(C)C)cc(C(O)CNC(C)(C)C)c1 (centres undefined) [Bambuterol hydrochloride]", "quantitative.result": 1}
{"molecule": "C[N+]1(C)CCCC(OC(=O)C(O)(c2ccccc2)c2ccccc2)C1 (centres undefined) [Mepenzolate bromide]", "quantitative.result": 1.01}
{"molecule": "c1ccc2c(c1)OCC(C1=NCCN1)O2 (centres undefined) [Idazoxan hydrochloride]", "quantitative.result": 1.02}
{"molecule": "CN(C)C(=O)Oc1cccc([N+](C)(C)C)c1 [Neostigmine bromide]", "quantitative.result": 1}

---

System: Vibrio cholerae
Assay: growth AUC normalised to DMSO control (fraction of control); higher = less growth inhibition, active = hit call of the paper
Conditions: 20 µM
Structures can show the parent of a compound that is named as a salt.
Recorded measurements of growth AUC normalised to DMSO control, one per entry
assay.metric: growth AUC normalised to DMSO control

{"compound": "C#C[C@]1(O)CC[C@H]2[C@@H]3CCC4=CC(=O)CC[C@]4(C)[C@H]3CC[C@@]21C", "assay.metric": "growth AUC normalised to DMSO control", "result": "1.02 (inactive)"}
{"compound": "CCNCC(O)c1cccc(O)c1 (stereo not drawn) [Etilefrine hydrochloride]", "assay.metric": "growth AUC normalised to DMSO control", "result": "0.995 (inactive)"}
{"compound": "CCCC[N+]1(C)[C@@H]2C[C@@H](OC(=O)[C@H](CO)c3ccccc3)C[C@H]1[C@@H]1O[C@@H]12 (stereo partly drawn) [N-Butylscopolammonium bromide]", "assay.metric": "growth AUC normalised to DMSO control", "result": "1.01 (inactive)"}
{"compound": "CC(N)C(O)c1ccccc1 (stereo not drawn) [Phenylpropanolamine hydrochloride]", "assay.metric": "growth AUC normalised to DMSO control", "result": "1.01 (inactive)"}
{"compound": "O=[N+]([O-])O[C@@H]1CO[C@H]2[C@@H]1OC[C@@H]2O [Isosorbide mononitrate]", "assay.metric": "growth AUC normalised to DMSO control", "result": "1.02 (inactive)"}
{"compound": "Clc1ccc(C(OCCN2CCCCC2)c2ccccc2)cc1 (stereo not drawn) [Cloperastine hydrochloride]", "assay.metric": "growth AUC normalised to DMSO control", "result": "0.954 (inactive)"}
{"compound": "CN(C)C(=O)Oc1cc(OC(=O)N(C)C)cc(C(O)CNC(C)(C)C)c1 (stereo not drawn) [Bambuterol hydrochloride]", "assay.metric": "growth AUC normalised to DMSO control", "result": "1 (inactive)"}
{"compound": "CC(C)CC(N(C)C)C1(c2ccc(Cl)cc2)CCC1 (stereo not drawn) [Sibutramine hydrochloride]", "assay.metric": "growth AUC normalised to DMSO control", "result": "0.967 (inactive)"}

---

Tested on: Haemophilus parainfluenzae
Assay: growth AUC normalised to DMSO control (fraction of control); higher = less growth inhibition, active = hit call of the paper
Conditions: 20 µM
Counter-ions that a name gives are not always drawn.

{"molecule": "NC[C@H]1O[C@H](O[C@H]2[C@H](O)[C@@H](O[C@H]3O[C@H](CO)[C@@H](O)[C@H](N)[C@H]3O)[C@H](N)C[C@@H]2N)[C@H](N)C[C@@H]1O [Tobramycin]", "growth AUC normalised to DMSO control": 0.0457}
{"molecule": "COc1cc2nc(N3CCN(C(=O)c4ccco4)CC3)nc(N)c2cc1OC [Prazosin hydrochloride]", "growth AUC normalised to DMSO control": 0.981}
{"molecule": "CC[C@H]1OC(=O)[C@H](C)[C@@H](O[C@H]2C[C@@](C)(OC)[C@@H](O)[C@H](C)O2)[C@H](C)[C@@H](O[C@@H]2O[C@H](C)C[C@H](N(C)C)[C@H]2O)[C@](C)(O)C[C@@H](C)CN(C)[C@H](C)[C@@H](O)[C@]1(C)O [Azithromycin]", "growth AUC normalised to DMSO control": 0.0436}
{"molecule": "CCC(=O)O[C@]1(C(=O)CCl)[C@@H](C)C[C@H]2[C@@H]3CCC4=CC(=O)C=C[C@]4(C)[C@@]3(F)[C@@H](O)C[C@@]21C [Clobetasol propionate]", "growth AUC normalised to DMSO control": 1.47}
{"molecule": "CS(=O)(=O)c1ccc(C2=C(c3ccccc3)C(=O)OC2)cc1 [Rofecoxib]", "growth AUC normalised to DMSO control": 0.964}
{"molecule": "Cc1cc2c(cc1S(N)(=O)=O)S(=O)(=O)CCC2 [Meticrane]", "growth AUC normalised to DMSO control": 1.04}
{"molecule": "COc1ccc2[nH]c([S+]([O-])Cc3ncc(C)c(OC)c3C)nc2n1 (centres undefined) [Tenatoprazole]", "growth AUC normalised to DMSO control": 0.978}
{"molecule": "CN(C)c1nc(N(C)C)nc(N(C)C)n1 [Altretamine]", "growth AUC normalised to DMSO control": 1.05}
{"molecule": "CCOc1ccccc1OCC1CNCCO1 (centres undefined) [Viloxazine hydrochloride]", "growth AUC normalised to DMSO control": 0.967}
{"molecule": "CC[C@H]1OC(=O)[C@H](C)[C@@H](O[C@H]2C[C@@](C)(OC)[C@@H](O)[C@H](C)O2)[C@H](C)[C@@H](O[C@@H]2O[C@H](C)C[C@H](N(C)C)[C@H]2O)[C@](C)(OC)C[C@@H](C)C(=O)[C@H](C)[C@@H](O)[C@]1(C)O [Clarithromycin]", "growth AUC normalised to DMSO control": 0.0384}
{"molecule": "CC(=O)NC[C@H]1CN(c2ccc(N3CCOCC3)c(F)c2)C(=O)O1 [Linezolid]", "growth AUC normalised to DMSO control": 0.582}
{"molecule": "CO/N=C(\\C(=O)N[C@@H]1C(=O)N2C(C(=O)O)=C(C[N+]3(C)CCCC3)CS[C@H]12)c1csc(N)n1 [Cefepime hydrochloride]", "growth AUC normalised to DMSO control": 0.0407}
{"molecule": "Cc1ccccc1OCC(O)CO (centres undefined) [Mephenesin]", "growth AUC normalised to DMSO control": 0.93}
{"molecule": "CCOC(=O)Nc1ccc2c(c1)N(C(=O)CCN1CCOCC1)c1ccccc1S2 [Moricizine hydrochloride]", "growth AUC normalised to DMSO control": 0.998}
